- assay.target: MMP-2 (Homo sapiens)
- Construct: made in house; host or cells: MMP-2-transfected p2AHT2 cells
- Sequence (P08253 110-660): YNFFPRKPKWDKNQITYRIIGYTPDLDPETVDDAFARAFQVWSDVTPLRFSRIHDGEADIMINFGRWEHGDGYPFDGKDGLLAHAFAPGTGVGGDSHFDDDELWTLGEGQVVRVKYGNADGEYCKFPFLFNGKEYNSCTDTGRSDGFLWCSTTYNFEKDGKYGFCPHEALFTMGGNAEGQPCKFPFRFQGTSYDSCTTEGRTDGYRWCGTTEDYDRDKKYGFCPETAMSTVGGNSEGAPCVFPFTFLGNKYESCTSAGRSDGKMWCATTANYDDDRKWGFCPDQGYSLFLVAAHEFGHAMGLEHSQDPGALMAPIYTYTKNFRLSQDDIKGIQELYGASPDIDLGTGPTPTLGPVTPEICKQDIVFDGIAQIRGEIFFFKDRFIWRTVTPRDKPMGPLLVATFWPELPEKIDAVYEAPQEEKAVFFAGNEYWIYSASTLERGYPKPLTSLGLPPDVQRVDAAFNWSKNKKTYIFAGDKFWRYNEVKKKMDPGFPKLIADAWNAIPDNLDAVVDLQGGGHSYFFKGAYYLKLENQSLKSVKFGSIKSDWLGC
- measurement.notes: In vitro MMP inhibition, Ki determination (fluorogenic substrate II)
- Format: biochemical
- conditions.used: value not in parenthesis; read-out: MMP-2 Ki
pKi: −log10 of the molar value.
# pKi >= 9 gives criterion met, anything below gives criterion not met

Here are 2 compounds together with their reported answers.
CCCc1ccc(N2CCN(S(=O)(=O)C3(C(=O)NO)CCN(CCOC)CC3)CC2)cc1 ... criterion met
O=C(NO)C1(S(=O)(=O)N2CCN(c3ncccn3)CC2)CCOCC1 [Example 107] ... criterion not met

# next compound below
Qu. Could you tell me if the measured pKi of O=C(NO)C1(S(=O)(=O)N2CCN(c3ccc(-c4ccc(F)cc4)cc3)CC2)CCOCC1 reaches 9 or more?
Ans. criterion met

All values here come from patent US20050209278A1.
